// reported IC50 for each item listed
target: FGFR1 (Homo sapiens (Human), UniProt P11362); assay: FGFR enzymatic assay (FRET peptide phosphorylation), FGFR1; type: biochemical; conditions: FGFR1 enzyme 0.02 nM, ATP 210 μM
Sequence (P11362 22-822): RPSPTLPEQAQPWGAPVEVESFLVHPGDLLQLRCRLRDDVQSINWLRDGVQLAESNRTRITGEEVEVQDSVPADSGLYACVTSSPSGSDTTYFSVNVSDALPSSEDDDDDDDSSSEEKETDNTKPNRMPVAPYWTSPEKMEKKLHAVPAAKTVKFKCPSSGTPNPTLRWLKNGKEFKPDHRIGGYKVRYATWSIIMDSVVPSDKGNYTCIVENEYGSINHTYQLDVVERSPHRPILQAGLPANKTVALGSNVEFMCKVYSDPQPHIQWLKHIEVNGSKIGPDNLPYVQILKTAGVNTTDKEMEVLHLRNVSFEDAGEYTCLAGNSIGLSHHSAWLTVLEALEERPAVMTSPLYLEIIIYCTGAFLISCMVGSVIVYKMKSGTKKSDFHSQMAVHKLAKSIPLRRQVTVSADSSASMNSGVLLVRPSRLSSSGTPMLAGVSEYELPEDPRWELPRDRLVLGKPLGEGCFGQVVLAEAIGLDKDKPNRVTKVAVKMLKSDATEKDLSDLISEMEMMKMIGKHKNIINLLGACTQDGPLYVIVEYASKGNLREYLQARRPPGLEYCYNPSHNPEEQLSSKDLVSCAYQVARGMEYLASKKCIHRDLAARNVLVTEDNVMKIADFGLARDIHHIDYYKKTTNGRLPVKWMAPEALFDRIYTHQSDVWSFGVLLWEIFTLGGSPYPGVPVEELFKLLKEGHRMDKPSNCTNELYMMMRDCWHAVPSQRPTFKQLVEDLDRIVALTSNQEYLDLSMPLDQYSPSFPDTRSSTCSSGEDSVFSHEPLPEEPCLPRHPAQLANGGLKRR
QUANTITY_MEASURED: IC50

SMILES	ASSAY_SYSTEM	DATA_VALUE
COc1cc(OC)c(F)c(N2Cc3cnc4[nH]c(CN5CCN(C)CC5)cc4c3N(c3cccc(F)c3F)C2=O)c1F	FGFR1 (Homo sapiens (Human), UniProt P11362)	< 100 nM
COc1cc(OC)c(F)c(N2Cc3cnc4[nH]ncc4c3N(C[C@@H]3CCCO3)C2=O)c1F	FGFR1 (Homo sapiens (Human), UniProt P11362)	< 100 nM
CCN1CCN(CCCc2cc3c4c(cnc3[nH]2)CN(c2c(F)c(OC)cc(OC)c2F)C(=O)N4C)CC1	FGFR1 (Homo sapiens (Human), UniProt P11362)	< 100 nM
COc1cc(OC)c(F)c(N2Cc3cnc4[nH]ccc4c3N(C3CC3)C2=O)c1F	FGFR1 (Homo sapiens (Human), UniProt P11362)	< 100 nM
CCNC(=O)c1cccc(N2C(=O)N(c3c(F)c(OC)cc(OC)c3F)Cc3cnc4[nH]ncc4c32)c1F	FGFR1 (Homo sapiens (Human), UniProt P11362)	< 100 nM
CCN1CCN(Cc2cc3c4c(cnc3[nH]2)CN(c2c(F)c(OC)cc(OC)c2F)C(=O)N4c2ccccc2F)CC1	FGFR1 (Homo sapiens (Human), UniProt P11362)	< 100 nM
CNC(=O)c1cc2c3c(cnc2[nH]1)CN(c1cc(OC)cc(OC)c1Cl)C(=O)N3C	FGFR1 (Homo sapiens (Human), UniProt P11362)	< 100 nM

Hello, the source for this data is patent US9611267B2, in case you need it.
